- Test system: Escherichia coli IAI1
- run-description: growth (OD595) fold change vs plate DMSO controls (fold change (ratio)); higher = more growth
- condition: incubation time: 27 h, anaerobic, 37 °C
Structures can show the parent of a compound that is named as a salt.
observed-property: growth
Answer field: number only, no words.

Write down growth measured for item CCC[C@@H]1C[C@@H](C(=O)N[C@@H]([C@H]2O[C@H](SC)[C@H](O)[C@@H](O)[C@H]2O)[C@H](C)Cl)N(C)C1 [Clindamycin hydrochloride] (20 µM)
0.682

Write down growth measured for item O=C(NCCN1CCOCC1)c1ccc(Cl)cc1 [Moclobemide] (20 µM)
0.993

Write down growth measured for item Cc1cc(NC(=O)C2=C(O)c3ccccc3S(=O)(=O)N2C)no1 [Isoxicam] (20 µM)
1.05

Write down growth measured for item C#C[C@]1(O)CC[C@H]2[C@@H]3CCc4cc(OC)ccc4[C@H]3CC[C@@]21C [Mestranol] (20 µM)
0.999

Write down growth measured for item N=c1ccn2c(n1)O[C@H]1[C@H](O)[C@@H](CO)O[C@H]12 [Ancitabine hydrochloride] (20 µM)
1.01

Write down growth measured for item COCCc1ccc(OCC(O)CNC(C)C)cc1 (stereo not drawn) [Metoprolol-(+)-tartrate salt] (20 µM)
1.03

Write down growth measured for item CC(C)Nc1ncccn1 [Isaxonine] (20 µM)
0.989

Write down growth measured for item Cc1ccc(C(=O)c2ccc(CC(=O)O)n2C)cc1 [Tolmetin sodium salt dihydrate] (20 µM)
0.976

Write down growth measured for item Clc1ccc(C(Cn2ccnc2)OCc2csc3c(Cl)cccc23)c(Cl)c1 (stereo not given) [Sertaconazole nitrate] (20 µM)
1.1

Write down growth measured for item NC(=O)N1c2ccccc2CC(=O)c2ccccc21 [Oxcarbazepine] (20 µM)
1.01

Write down growth measured for item O=C(O)Cc1ccccc1Oc1ccc(Cl)cc1Cl [Fenclofenac] (20 µM)
1.02

Write down growth measured for item CCCNC(C)C(=O)Nc1c(C)csc1C(=O)OC (stereo not given) [Articaine hydrochloride] (20 µM)
1.08

Write down growth measured for item C[C@H]1O[C@@H](O[C@H]2[C@@H](O)C[C@H](O[C@H]3[C@@H](O)C[C@H](O[C@H]4CC[C@@]5(C)[C@H](CC[C@@H]6[C@@H]5C[C@@H](O)[C@]5(C)[C@@H](C7=CC(=O)OC7)CC[C@]65O)C4)O[C@@H]3C)O[C@@H]2C)C[C@H](O)[C@@H]1O [Digoxin] (20 µM)
0.971

Write down growth measured for item COc1cc(C(=O)N2CCOCC2)cc(OC)c1OC [Trimetozine] (20 µM)
0.972

Write down growth measured for item S=C([S-])NCCNC(=S)[S-].S=C([S-])NCCNC(=S)[S-].[Mn+2].[Zn+2] (20 µM)
0.959

----------
- Tested on: Klebsiella aerogenes DSM 30053
- run-description: growth (OD595) fold change vs plate DMSO controls (fold change (ratio)); higher = more growth
- condition: incubation time: 27 h, anaerobic, 37 °C
Where a name gives a salt, the structure may show the parent alone.
observed-property: growth
Answer field: number only, no words.

Write down growth measured for item CCCSc1ccc2[nH]c(NC(=O)OC)nc2c1 [Albendazole] (20 µM)
1.05

Write down growth measured for item COc1cccc(CCc2ccccc2OCC(CN(C)C)OC(=O)CCC(=O)O)c1 (stereo not drawn) [Sarpogrelate hydrochloride] (20 µM)
1.02

Write down growth measured for item N=c1nc(N2CCCCC2)cc(N)n1O [Minoxidil] (20 µM)
1.03

Write down growth measured for item c1ccc(-c2ccc(C(c3ccccc3)n3ccnc3)cc2)cc1 (stereo not drawn) [Bifonazole] (20 µM)
1.02

Write down growth measured for item C=CCOC(Cn1ccnc1)c1ccc(Cl)cc1Cl (stereo not drawn) [Enilconazole] (20 µM)
0.991

Write down growth measured for item Nc1nc(F)nc2c1ncn2[C@@H]1O[C@H](CO)[C@@H](O)[C@@H]1O [Fludarabine] (20 µM)
0.982

Write down growth measured for item COc1c(O)cc2c(c1O)[C@@H]1O[C@H](CO)[C@@H](O)[C@H](O)[C@H]1OC2=O [Bergenin] (20 µM)
1.11

Write down growth measured for item Cn1c(=O)c2c(ncn2CC2OCCO2)n(C)c1=O [Doxofylline] (20 µM)
0.973
